molecular target: human PD-L1 (huPD-L1), on stably transduced CHO cells (human) (UniProt Q9NZQ7); assay: flow cytometry on CHO cells stably expressing huPD-L1, 33.3 nM Fc fusion, PE anti-human Fc
Sequence (Q9NZQ7 19-290): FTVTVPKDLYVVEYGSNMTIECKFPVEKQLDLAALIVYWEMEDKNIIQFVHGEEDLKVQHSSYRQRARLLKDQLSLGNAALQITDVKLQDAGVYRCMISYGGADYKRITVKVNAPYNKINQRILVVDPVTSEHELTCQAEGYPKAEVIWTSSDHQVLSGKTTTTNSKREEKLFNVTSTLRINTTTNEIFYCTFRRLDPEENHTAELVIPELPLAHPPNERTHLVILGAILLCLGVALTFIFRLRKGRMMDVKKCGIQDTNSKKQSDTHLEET
value-kind: MFI at 33.3 nM (MFI)

- binder: "variant CD80 IgV-Fc E35D/D46E/L85M (Fc fusion) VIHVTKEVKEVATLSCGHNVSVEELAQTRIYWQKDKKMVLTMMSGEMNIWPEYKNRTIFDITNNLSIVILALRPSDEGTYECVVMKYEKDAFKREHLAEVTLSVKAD"
  MFI at 33.3 nM / MFI: 2880
- binder: "variant CD80 IgV-Fc Q27H/E35D/M47I (Fc fusion) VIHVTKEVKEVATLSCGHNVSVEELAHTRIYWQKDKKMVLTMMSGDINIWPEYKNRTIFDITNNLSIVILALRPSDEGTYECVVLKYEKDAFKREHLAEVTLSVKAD"
  MFI at 33.3 nM / MFI: 3420

Just for reference, patent US20220177587A1 is where these values come from.
